These data points were gathered from ChEMBL document CHEMBL3137667.

- condition_details: human, serum
// values below are reported Hepatotoxicity (acute)
Would you mind answering with just the numeric figure?

{"columns": ["compound", "measured"],
 "data": [
  ["O=C(O)Cn1c(=O)n(Cc2ccc(Br)cc2F)c(=O)c2ccc(Cl)cc21", 0],
  ["C[C@]12C=CC(=O)C=C1CC[C@@H]1[C@@H]2[C@@H](O)C[C@@]2(C)[C@H]1CC[C@]2(O)C(=O)CO", 2],
  ["C[C@@](Cc1ccc(O)c(O)c1)(NN)C(=O)O.O", 1],
  ["O=C(O)COc1nn(Cc2ccccc2)c2ccccc12", 6],
  ["CC(=O)c1ccc2c(c1)N(CCCN(C)C)c1ccccc1S2", 1],
  ["CCCCc1nc(Cl)c(CO)n1Cc1ccc(-c2ccccc2-c2nn[nH]n2)cc1", 5],
  ["Cc1cccc(C)c1NC(=O)C(C)N (centres undefined) [TOCAINIDE]", 6],
  ["O=C1NC(=S)NC(=O)C1C(=O)Nc1ccccc1", 1]
]}

// below: Hepatotoxicity (acute) requested for another compound
Find the recorded Hepatotoxicity (acute) belonging to CC(C)CCOc1ccc(NC(=S)Nc2ccc(OCCC(C)C)cc2)cc1 [TIOCARLIDE] and report it.
2

====

- test_description: Times to onset, minimal and maximal, observed in the indexed observations. [column 'DELAI' in source]
- condition_details: human
quantity_name: Hepatotoxicity (time to onset)

{"columns": ["compound", "Hepatotoxicity (time to onset)"],
 "data": [
  ["O=C(O)CCc1nc(-c2ccccc2)c(-c2ccccc2)o1 [OXAPROZIN]", "2 weeks - 6 months"],
  ["COc1ccc2c(C(=O)c3ccc(Cl)cc3)c(C)n(CC(=O)O)c2c1 [CLOMETACIN]", "1 week - 10 years"],
  ["CNNCc1ccc(C(=O)NC(C)C)cc1 [PROCARBAZINE]", "2 weeks - 3 weeks"],
  ["CCCCOCC(CN1C(=O)N(CC(COCCCC)OC(N)=O)C(=O)C(CC)(c2ccccc2)C1=O)OC(N)=O (configuration not stated) [DIFEBARBAMATE]", "8 days - 15 months"],
  ["CC(C)C(=O)Nc1ccc([N+](=O)[O-])c(C(F)(F)F)c1 [FLUTAMIDE]", "3 days - 10 months"],
  ["O=[As](O)(O)c1ccc(NCCNc2ccc([As](=O)(O)O)cc2)cc1 [DIFETARSONE]", "2 days - 3 weeks"],
  ["CN1CCN(CCCN2c3ccccc3Sc3ccccc32)CC1 [PERAZINE]", "1.5 months - 1 year"],
  ["CCN(CC)CCCC(C)Nc1c2ccc(Cl)cc2nc2ccc(OC)cc12 (configuration not stated) [QUINACRINE]", "1 week - 4 months"]
]}

Find the recorded Hepatotoxicity (time to onset) belonging to O=C1CCC(N2C(=O)c3ccccc3C2=O)C(=O)N1 (configuration not stated) [THALIDOMIDE] and report it.
5 days - 7 months

Find the recorded Hepatotoxicity (time to onset) belonging to C=CC[C@@H]1/C=C(\C)C[C@H](C)C[C@H](OC)[C@H]2O[C@@](O)(C(=O)C(=O)N3CCCC[C@H]3C(=O)O[C@H](/C(C)=C/[C@@H]3CC[C@@H](O)[C@H](OC)C3)[C@H](C)[C@@H](O)CC1=O)[C@H](C)C[C@@H]2OC [TACROLIMUS ANHYDROUS] and report it.
1 month - 3 months

Find the recorded Hepatotoxicity (time to onset) belonging to O=c1[nH]c(=O)n([C@H]2C[C@H](O)[C@@H](CO)O2)cc1F [FLOXURIDINE] and report it.
3 cures - 12 cures

Find the recorded Hepatotoxicity (time to onset) belonging to CN[C@@H]1[C@H](O[C@H]2[C@H](O[C@H]3[C@H](O)[C@@H](O)[C@H](NC(=N)N)[C@@H](O)[C@@H]3NC(=N)N)O[C@@H](C)[C@]2(O)CO)O[C@@H](CO)[C@H](O)[C@H]1O [DIHYDROSTREPTOMYCIN] and report it.
< 1 days

====

- test_description: Times to onset, minimal and maximal, observed in the indexed observations. [column 'DELAI' in source]
- condition_details: human
// values below are reported Hepatotoxicity (time to onset)

{"columns": ["compound", "Hepatotoxicity (time to onset)"],
 "data": [
  ["O=C(Oc1ccccc1C(=O)O)c1ccccc1O [SALSALATE]", "1 day - 2 weeks"],
  ["CC(=O)Oc1cccc2c1C(=O)c1c(OC(C)=O)cc(C(=O)O)cc1C2=O [DIACEREIN]", "10 days"],
  ["CCCCOCC(CN1C(=O)NC(=O)C(CC)(c2ccccc2)C1=O)OC(N)=O (centres undefined) [FEBARBAMATE]", "8 days - 15 months"]
]}

// below: Hepatotoxicity (time to onset) requested for another compound
Find the recorded Hepatotoxicity (time to onset) belonging to Cc1onc(-c2ccccc2)c1C(=O)N[C@@H]1C(=O)N2[C@@H]1SC(C)(C)[C@@H]2C(=O)O [OXACILLIN] and report it.
2 days - 2.5 months

====

- test_description: Times to onset, minimal and maximal, observed in the indexed observations. [column 'DELAI' in source]
- condition_details: human
// values below are reported Hepatotoxicity (time to onset)

{"columns": ["compound", "Hepatotoxicity (time to onset)"],
 "data": [
  ["C[C@@H](CN1CC(=O)NC(=O)C1)N1CC(=O)NC(=O)C1", "1 week"],
  ["COc1ccc(C(CN(C)C)C2(O)CCCCC2)cc1 (stereo not given)", "12 days - 6 months"],
  ["O=C(OCC(O)CO)c1ccccc1Nc1ccnc2cc(Cl)ccc12 (stereo not given)", "2 days - 8 months"],
  ["COc1ccc2[nH]c([S+]([O-])Cc3ncc(C)c(OC)c3C)nc2c1 (stereo not given)", "2 days - 1 year"],
  ["CCCCC(CC)COC(=O)CC(C(=O)OCC(CC)CCCC)S(=O)(=O)O (stereo not given) [DOCUSATE]", "2 days - 1 year"]
]}

Find the recorded Hepatotoxicity (time to onset) belonging to `N=C(N)c1ccc(OCCCCCOc2ccc(C(=N)N)cc2)cc1` and report it.
1 week - 3 months

Find the recorded Hepatotoxicity (time to onset) belonging to `C[C@H](CCC(=O)O)[C@H]1CC[C@H]2[C@@H]3[C@@H](O)C[C@@H]4C[C@H](O)CC[C@]4(C)[C@H]3CC[C@]12C` and report it.
3 weeks - 14 weeks

Find the recorded Hepatotoxicity (time to onset) belonging to CC(=O)OCC(=O)NCCCOc1cccc(CN2CCCCC2)c1 [ROXATIDINE ACETATE] and report it.
4 weeks

Find the recorded Hepatotoxicity (time to onset) belonging to `COc1cc(Cc2cnc(N)nc2N)cc(OC)c1OC` and report it.
5 days - 24 days

Find the recorded Hepatotoxicity (time to onset) belonging to `CC(C)(O)c1ccccc1CC[C@@H](SCC1(CC(=O)O)CC1)c1cccc(/C=C/c2ccc3ccc(Cl)cc3n2)c1` and report it.
3 days - 2 years

Find the recorded Hepatotoxicity (time to onset) belonging to CCOC(=O)C(C)(CC)Oc1ccc(Cc2ccc(Cl)cc2)cc1 (stereo not given) [BECLOBRATE] and report it.
4 months - 6.5 months

Find the recorded Hepatotoxicity (time to onset) belonging to O=C1CC[C@@]2(O)[C@H]3Cc4ccc(O)c5c4[C@@]2(CCN3CC2CC2)[C@H]1O5 [NALTREXONE] and report it.
1 month - 2 months

Find the recorded Hepatotoxicity (time to onset) belonging to `Nc1ccc(C(=O)O)c(O)c1` and report it.
2 weeks - 2 months

Find the recorded Hepatotoxicity (time to onset) belonging to CC(C)N(CCC(C(N)=O)(c1ccccc1)c1ccccn1)C(C)C (stereo not given) [DISOPYRAMIDE] and report it.
2 weeks - 1 year

Find the recorded Hepatotoxicity (time to onset) belonging to CCCCC1C(=O)N(c2ccccc2)N(c2ccc(O)cc2)C1=O (stereo not given) [OXYPHENBUTAZONE ANHYDROUS] and report it.
1 week - 2 months

Find the recorded Hepatotoxicity (time to onset) belonging to `CC(=O)Nc1ccc(/C=N/NC(N)=S)cc1` and report it.
1.5 months - 6 months

Find the recorded Hepatotoxicity (time to onset) belonging to `O=C1Nc2ccc(Cl)cc2[C@@](C#CC2CC2)(C(F)(F)F)O1` and report it.
10 days - 4 weeks

Find the recorded Hepatotoxicity (time to onset) belonging to `C=CC1=C(C(=O)O)N2C(=O)[C@@H](NC(=O)/C(=N\O)c3csc(N)n3)[C@H]2SC1` and report it.
2 days

Find the recorded Hepatotoxicity (time to onset) belonging to `Cc1cn([C@H]2C=C[C@@H](CO)O2)c(=O)[nH]c1=O` and report it.
6 days - 5 years

Find the recorded Hepatotoxicity (time to onset) belonging to `CC(C)NNC(=O)c1ccncc1` and report it.
3 days - 1 year

====

- test_description: Highest frequency of acute liver toxicity observed during clinical trials, expressed as a percentage. [column '% AIGUE' in source]
- condition_details: human, Liver
quantity_name: Hepatotoxicity (acute) (%)
Kindly provide the numeric value in % only, without the unit symbol.

{"columns": ["molecule", "quantity_unit", "Hepatotoxicity (acute)"],
 "data": [
  ["Cn1cnc([N+](=O)[O-])c1Sc1ncnc2nc[nH]c12 [AZATHIOPRINE]", "%", 11.1],
  ["O=C1NS(=O)(=O)c2ccccc21 [SACCHARIN]", "%", 0],
  ["CNn1cc(C(=O)O)c(=O)c2cc(F)c(N3CCN(C)CC3)cc21 [AMIFLOXACIN]", "%", 1.7],
  ["CN/C(=N/CCSCc1nc[nH]c1C)NC#N [CIMETIDINE]", "%", 0]
]}

Find the recorded Hepatotoxicity (acute) belonging to Cc1ccc(C)c(OCCCC(C)(C)C(=O)O)c1 [GEMFIBROZIL] and report it.
0

Find the recorded Hepatotoxicity (acute) belonging to CCCCC1=NC2(CCCC2)C(=O)N1Cc1ccc(-c2ccccc2-c2nnn[nH]2)cc1 [IRBESARTAN] and report it.
0

Find the recorded Hepatotoxicity (acute) belonging to COc1cc(Cc2cnc(N)nc2N)cc(OC)c1OC [TRIMETHOPRIM] and report it.
0

Find the recorded Hepatotoxicity (acute) belonging to NC(CO)(CO)CO [TROMETHAMINE] and report it.
0

Find the recorded Hepatotoxicity (acute) belonging to O=P1(N(CCCl)CCCl)NCCCO1 (stereo not drawn) [CYCLOPHOSPHAMIDE ANHYDROUS] and report it.
2.6

Find the recorded Hepatotoxicity (acute) belonging to CN(C)CC[C@@H](c1ccc(Cl)cc1)c1ccccn1 [DEXCHLORPHENIRAMINE] and report it.
0

Find the recorded Hepatotoxicity (acute) belonging to COc1ccccc1OCCNCC(O)COc1cccc2[nH]c3ccccc3c12 (stereo not drawn) [CARVEDILOL] and report it.
0

Find the recorded Hepatotoxicity (acute) belonging to CC(C)OC(=O)C(C)(C)Oc1ccc(C(=O)c2ccc(Cl)cc2)cc1 [FENOFIBRATE] and report it.
2.7

Find the recorded Hepatotoxicity (acute) belonging to CN[C@H]1CC[C@@H](c2ccc(Cl)c(Cl)c2)c2ccccc21 [SERTRALINE] and report it.
0
